Sourced from patent US20250163052A1

Listing of entries alongside the reported inhibition at 1 µM.
- targetEntity: h-cGAS (Homo sapiens)
- experiment: Cell-free human cGAS enzyme inhibition assay (ATP depletion, Kinase-Glo Max)
- Type: biochemical
- measurementParameters: 3 h; read-out: h-cGAS, conc. 1 μM
readout: inhibition at 1 µM

compound | observedValue
O=C(CO)N1CCc2oc3c(Cl)c(Cl)cc(-c4ccco4)c3c2C1 | 0 to 24%
Cn1cc(-c2cc(Cl)c(Cl)c3sc4c(c23)CN(C(=O)CN)CC4)cn1 | 50 to 74%
Cn1ccc(-c2cc(Cl)c(Cl)c3c2c2c(n3C)CCN(C(=O)C(C)(C)O)C2)n1 | 25 to 49%
NCC(=O)N1CCc2c(sc3c(Cl)c(Cl)cc(-c4cnccn4)c23)C1 | 0 to 24%
CC(O)C(=O)N1CCc2c(c3c(-c4ccn(C)n4)cc(Cl)c(Cl)c3n2C)C1 (centres unmarked) | 25 to 49%
Cn1cc(-c2cc(Cl)c(Cl)c3oc4c(c23)CN(C(=O)CN)CC4)cn1 | 50 to 74%
NCC(=O)N1CCc2sc3c(Cl)c(Cl)cc(-c4cncnc4)c3c2C1 | 0 to 24%
NCC(=O)N1CCc2c(sc3c(Cl)c(Cl)cc(-c4cccs4)c23)C1 | 0 to 24%
Cn1cnc(-c2cc(Cl)c(Cl)c3sc4c(c23)CCN(C(=O)CN)C4)c1 | 0 to 24%
O=C(CO)N1CCc2sc3c(Cl)c(Cl)cc(-c4ccco4)c3c2C1 | 0 to 24%
CC(C)(N)C(=O)N1CCc2c(sc3c(Cl)c(Cl)cc(-c4cn[nH]c4)c23)C1 | 0 to 24%
Cn1ccc(-c2cc(Cl)c(Cl)c3oc4c(c23)CN(C(=O)CO)CC4)n1 | 50 to 74%
CN1c2c(Cl)c(Cl)cc(-c3cncnc3)c2C2CN(C(=O)CN)CCC21 (centres unmarked) | 50 to 74%
Nc1ccc(-c2cc(Cl)c(Cl)c3oc4c(c23)CN(C(=O)CO)CC4)cn1 | 50 to 74%
NCC(=O)N1CCc2c(sc3c(Cl)c(Cl)cc(-c4cccnc4)c23)C1 | 0 to 24%
NCC(=O)N1CCc2c(sc3c(Cl)c(Cl)cc(-c4ccccn4)c23)C1 | 0 to 24%
NCC(=O)N1CCc2oc3c(Cl)c(Cl)cc(-c4cncnc4)c3c2C1 | 25 to 49%

----------
Here the recorded inhibition at 10 µM is given for each entry.
- targetEntity: h-cGAS (Homo sapiens, UniProt Q8N884)
- Sequence (Q8N884 whole entry): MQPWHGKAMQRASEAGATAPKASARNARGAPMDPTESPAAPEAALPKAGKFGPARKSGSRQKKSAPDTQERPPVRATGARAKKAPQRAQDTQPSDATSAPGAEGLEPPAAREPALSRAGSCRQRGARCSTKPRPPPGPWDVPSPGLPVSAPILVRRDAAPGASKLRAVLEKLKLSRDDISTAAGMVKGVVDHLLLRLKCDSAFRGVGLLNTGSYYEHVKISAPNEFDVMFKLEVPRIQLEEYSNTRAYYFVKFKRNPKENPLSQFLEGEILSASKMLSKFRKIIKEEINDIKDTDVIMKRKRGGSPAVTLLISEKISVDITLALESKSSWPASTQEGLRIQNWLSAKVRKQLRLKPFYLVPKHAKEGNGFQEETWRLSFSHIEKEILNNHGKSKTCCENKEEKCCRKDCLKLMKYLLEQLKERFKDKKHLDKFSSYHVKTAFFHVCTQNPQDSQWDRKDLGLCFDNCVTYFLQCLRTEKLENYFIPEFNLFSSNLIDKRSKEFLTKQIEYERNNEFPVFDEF
- experiment: Cell-free human cGAS enzyme inhibition assay (ATP depletion, Kinase-Glo Max)
- Assay type: biochemical
- measurementParameters: 3 h; read-out: h-cGAS, conc. 10 μM
- Method: Cell-free mouse and human cGAS enzyme inhibition assay (Table 2). […] The luminescence was recorded in relative light units (RLUs) using a Biotek Synergy H1 Hybrid plate reader (BioTek, Winooski, VT). […] All reactions were run in triplicates and calculated using GraphPad Prism 9. […]

smilesInput | targetEntity | inhibition at 10 µM
NCC(=O)N1CCc2c(sc3c(Cl)c(Cl)cc(-c4ccncc4)c23)C1 | h-cGAS (Homo sapiens, UniProt Q8N884) | 25 to 49%
CC(C)(N)C(=O)N1CCc2sc3c(Cl)c(Cl)cc(-c4ccc(N)nc4)c3c2C1 | h-cGAS (Homo sapiens, UniProt Q8N884) | 50 to 74%
O=C(CO)N1CCc2c(sc3c(Cl)c(Cl)ccc23)C1 | h-cGAS (Homo sapiens, UniProt Q8N884) | 50 to 74%

----------
- experiment: Protein binding in mouse brain homogenates
- Assay type: in vitro ADME
- measurementParameters: brain homogenate, read-out: % BoundBrain (converted)

molecule | fraction unbound at 6 hr
Cn1cc(-c2cc(Cl)c(Cl)c3oc4c(c23)CN(C(=O)CN)CC4)cn1 [Compound 33] | < 4e-05
Cn1cc(-c2cc(Cl)c(Cl)c3sc4c(c23)CN(C(=O)CO)CC4)cn1 [Compound 48] | < 0.0001
O=C(CO)N1CCc2c(sc3c(Cl)c(Cl)cc(-c4cn[nH]c4)c23)C1 [Compound 63] | < 2e-05

----------
inhibition at 10 µM reference
- targetEntity: UniProt:Q8N884
- experiment: Cell-free human cGAS enzyme inhibition assay (ATP depletion, Kinase-Glo Max)
- Type: biochemical
- measurementParameters: 3 h; read-out: h-cGAS, conc. 10 μM

molecule | targetEntity | inhibition at 10 µM
O=C(CO)N1CCc2sc3c(Cl)c(Cl)cc(-c4cn[nH]c4)c3c2C1 [Compound 51] | UniProt:Q8N884 | 25 to 49%
Cn1c2c(c3c(-c4cncnc4)cc(Cl)c(Cl)c31)CN(C(=O)CN)CC2 [Compound 8] | UniProt:Q8N884 | 75 to 100%
NCC(=O)N1CCc2c(sc3c(Cl)c(Cl)cc(-c4nccs4)c23)C1 [Compound 84] | UniProt:Q8N884 | 75 to 100%
O=C(CO)N1CCc2c(sc3c(Cl)c(Cl)cc(-c4nccs4)c23)C1 [Compound 67] | UniProt:Q8N884 | 25 to 49%

----------
- targetEntity: h-cGAS (Homo sapiens)
- experiment: Cell-free human cGAS enzyme inhibition assay (ATP depletion, Kinase-Glo Max)
- Format: biochemical
- measurementParameters: 3 h; read-out: h-cGAS, conc. 10 μM

molecule | targetEntity | inhibition at 10 µM
CN1c2c(Cl)c(Cl)cc(-c3cncnc3)c2C2CN(C(=O)CN)CCC21 (stereo not drawn) [Compound 9] | h-cGAS (Homo sapiens) | 75 to 100%
O=C(CO)N1CCc2oc3c(Cl)c(Cl)cc(-c4cncnc4)c3c2C1 [Compound 25] | h-cGAS (Homo sapiens) | 50 to 74%
NCC(=O)N1CCc2c(sc3c(Cl)c(Cl)cc(-c4ccccn4)c23)C1 [Compound 86] | h-cGAS (Homo sapiens) | 50 to 74%
NCC(=O)N1CCc2c(sc3c(Cl)c(Cl)cc(-c4cncnc4)c23)C1 [Compound 73] | h-cGAS (Homo sapiens) | 50 to 74%
Cn1ccc(-c2cc(Cl)c(Cl)c3sc4c(c23)CCN(C(=O)CN)C4)n1 [Compound 83] | h-cGAS (Homo sapiens) | 50 to 74%
Cn1cc(-c2cc(Cl)c(Cl)c3oc4c(c23)CN(C(=O)CN)CC4)cn1 [Compound 33] | h-cGAS (Homo sapiens) | 75 to 100%
O=C(CO)N1CCc2nc3c(Cl)c(Cl)cc(-c4cncnc4)n3c2C1 [Compound 98] | h-cGAS (Homo sapiens) | 0 to 24%
CC(C)(N)C(=O)N1CCc2sc3c(Cl)c(Cl)cc(-c4cc[nH]n4)c3c2C1 [Compound 55] | h-cGAS (Homo sapiens) | 0 to 24%
CN1c2c(Cl)c(Cl)cc(-c3cnn(C)c3)c2C2CN(C(=O)CN)CCC21 (stereo not drawn) [Compound 12] | h-cGAS (Homo sapiens) | 75 to 100%
NCC(=O)N1CCc2c(sc3c(Cl)c(Cl)cc(-n4ccnc4)c23)C1 [Compound 97] | h-cGAS (Homo sapiens) | 25 to 49%
Cn1cc(-c2cc(Cl)c(Cl)c3nc4c(n23)CN(C(=O)CN)CC4)cn1 [Compound 101] | h-cGAS (Homo sapiens) | 0 to 24%
O=C(CO)N1CCc2sc3c(Cl)c(Cl)cc(-c4cc[nH]n4)c3c2C1 [Compound 50] | h-cGAS (Homo sapiens) | 0 to 24%
